The origin of these recorded values is paper PMC11207729.

test: in vivo; details: in vivo
Property: LC50 (µM)

| Compound | Property | Result comparator | Observed result |
| --- | --- | --- | --- |
| CC(c1cc2ccccc2s1)N(O)C(N)=O (centres unmarked) [Zileuton, reference compound] | LC50 | = | 4.41 |
| O=C(NO)NCc1ccccc1Nc1c(Cl)cccc1Cl [Compound 3] | LC50 | > | 50 |

###

Catalogue of IC50 values
tested on: SW620 cells; assay: Cytotoxicity in SW620 cells after 24 h treatment (Table S2); assay type: cell-based; conditions: Homo sapiens, SW-620, read-out: IC50 (µM) following 24h treatment in SW620 cells
Property: IC50 (µM)

| Molecule | Measurement unit | Observed result |
| --- | --- | --- |
| COC(=O)CNC(=O)c1cc(C(C)(C)C)c(O)c(C(C)(C)C)c1 | µM | 132 |
| CC(NC(=O)NO)c1ccc(-c2ccccc2)c(F)c1 (stereo not shown) | µM | 386 |
| COc1ccc2c(c1)c(CNC(=O)NO)c(C)n2C(=O)c1ccc(Cl)cc1 | µM | 215 |
| O=C(NO)NCc1ccccc1Nc1c(Cl)cccc1Cl | µM | 169 |
